condition.set: in n-propanol, 303.15 K
value.kind: solubility (mole fraction)
Respond with the number and no other words.

`CCc1cc(C(N)=S)ccn1` yielded solubility (mole fraction) of 0.0103

====

condition.set: in NMP, 298.15 K
value.kind: solubility (mole fraction)

For `CCc1cc(C(N)=S)ccn1` the compound record lists solubility (mole fraction) as 0.22

====

condition.set: in DMAc, 303.15 K
value.kind: solubility (mole fraction)

Measured solubility (mole fraction) of `CCc1cc(C(N)=S)ccn1` : 0.209

====

condition.set: in n-propanol, 313.15 K
value.kind: solubility (mole fraction)
Answer with a number only.

Kindly note the recorded solubility (mole fraction) for `CCc1cc(C(N)=S)ccn1` , which is 0.0159
